Here the recorded ELISA hDLL4 % inhibition is given for each entry.
target: T1, recombinant human DLL4, C-terminally His-tagged extracellular domain (R&D Systems) (human, UniProt Q9NR61 25-522, biotinylated where used in competition ELISA, AlphaScreen and on SA chips); test: competition ELISA, periplasmic extract
T1 construct: also called rhDLL4; hDLL4; not shown: C-terminal His tag
T1 sequence (Q9NR61 25-522): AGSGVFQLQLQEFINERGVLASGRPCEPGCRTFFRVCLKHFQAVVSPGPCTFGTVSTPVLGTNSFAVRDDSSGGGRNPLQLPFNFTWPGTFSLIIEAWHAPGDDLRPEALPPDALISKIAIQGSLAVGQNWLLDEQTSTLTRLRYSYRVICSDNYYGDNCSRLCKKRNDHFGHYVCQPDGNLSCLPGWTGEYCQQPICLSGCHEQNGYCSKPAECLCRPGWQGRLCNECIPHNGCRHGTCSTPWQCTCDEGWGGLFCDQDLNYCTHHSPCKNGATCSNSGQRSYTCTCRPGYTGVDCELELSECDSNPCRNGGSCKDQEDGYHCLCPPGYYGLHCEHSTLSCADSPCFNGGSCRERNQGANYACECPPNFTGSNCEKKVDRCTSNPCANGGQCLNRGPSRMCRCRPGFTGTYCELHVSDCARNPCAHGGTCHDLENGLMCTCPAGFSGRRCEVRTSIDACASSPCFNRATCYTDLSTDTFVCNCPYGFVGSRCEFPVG
Provide only the numeric value, understood in %.

Worked cases, answers included:
DLLBII6B11 (VHH, also called DLLBII06B11; not shown: C-terminal c-myc tag and His6 tag) VHH: EVQLVESEGGLVQAGGSLRLSCAASGSTFSSYAMGWYRQAPGKQRELVAVISNGGITNYPNSVKGRFTISRDNAKNTVYLQMNSLKPEDTAVYYCFYSGSYYYPTDVHEYDYWGQGTQVTVSS; 98
DLLBII7B05 (VHH, also called DLLBII07B05; DLLBII7B5; not shown: C-terminal c-myc tag and His6 tag) VHH: EVQLVESGGGLVQAGGSLRLSCAASGFALDYYAVGWFRQAPGKEREGVSCISSRGGSTFYADSVKGRFTTSRNNAKNTVYLQMNSLKPEDTAVYYCAAHPLQNCCGGSAYASPEAVYEYWGQGTQVTVSS; 84
DLLBII17G10 (VHH, tested as periplasmic extract; not shown: C-terminal c-myc tag and His6 tag) VHH: EVQLVESGGGLVQAGGSLRLSCAASGSTFSSYAMGWYRHQAPGKQRELVAAISSDGSTHYADSVKGRFTISRDNAKNTMYLQMNSLKPEDTAVYYCNTKTFGSNWYDDYWGQGTQVTVSS; 93

Okay, now this binder:
Quick one: ELISA hDLL4 % inhibition for DLLBII8C11 (VHH, also called DLLBII08C11; not shown: C-terminal c-myc tag and His6 tag) VHH: EVQLVESGGGLVQAGGSLRLSCAASGFTFDDYAIGWFRQAPGKEREGVSCISSHDRTTYYADSVKGRFTISSDNAKNTVYLQMNSLKPEDTAVYYCAADPLVCGYNDPRLADYWGQGTQVTVSS ?
57
